experiment: Measurement of optical properties of the agents (absorbance and fluorescence emission); format: physicochemical; settings: in DMSO; compounds lacking nerve binding
REPORTED PROPERTY: Em (maximal fluorescence emission wavelength) (nm)

>  <TEST SMILES>
CC1(C)OC(=O)C(C#N)=C1/C=C/c1ccc(NCCO)cc1

>  <RESULT VALUE>
578

$$$$
>  <TEST SMILES>
CC1(C)OC(=C(C#N)C#N)C(C#N)=C1/C=C/c1ccc(NCCO)cc1

>  <RESULT VALUE>
636

$$$$
>  <TEST SMILES>
CC1(C)OC(=O)C(C#N)=C1/C=C/c1ccc(N)cc1

>  <RESULT VALUE>
562

$$$$
>  <TEST SMILES>
CC1(C)OC(=O)C(C#N)=C1/C=C/c1ccc(N(CCO)CCO)cc1

>  <RESULT VALUE>
591

$$$$
>  <TEST SMILES>
CC1(C)OC(=C(C#N)C#N)C(C#N)=C1/C=C/c1ccc(N)cc1

>  <RESULT VALUE>
621

$$$$
>  <TEST SMILES>
CC1(C)OC(=C(C#N)C#N)C(C#N)=C1/C=C/c1ccc(N(CCO)CCO)cc1

>  <RESULT VALUE>
656

$$$$
